- testDetails: in vitro
- appliedConditions: human, hela cells, % viability
Measured viability at 28.5 h, 10 µM accompanies every entry in the list below.

| compound | viability at 28.5 h, 10 µM [%] |
| --- | --- |
| Cc1cc(-c2nccnc2NCCCN2CCOCC2)cc(C)c1O | 92 |
| Cc1ccc(S(=O)(=O)/N=C(/NCc2ccc(Cl)cc2)Nc2nc(C)cc(C)n2)cc1 | 102 |
| O=C(NCCNC(=O)c1ccccn1)c1cccc(F)c1 | 78.3 |
| O=C(NCCN1CCOCC1)C1CCN(c2nc3c(-c4ccccc4F)csc3c(=O)[nH]2)CC1 | 104 |
| CC(=O)Nc1cccc(-c2cc(Nc3ccc(N4CCN(Cc5ccccc5)CC4)cc3)ncn2)c1 | 81.8 |
| O=C1c2cccc3cccc(c23)C(=O)N1CCN1CCN(CC(O)COc2ccccc2)CC1 (stereo not drawn) | 97.4 |
| COc1ccc(C)cc1S(=O)(=O)n1ccc2c(CNC3CC(C)(C)NC(C)(C)C3)cccc21 [CBK113311T] | 83.1 |
| O=S1(=O)CCN(Cc2cnn(-c3ccc(OC(F)(F)F)cc3)n2)CC1 | 95.3 |
| Cc1nnc(Nc2ccc(F)cc2)c2ccccc12 | 93.9 |

----------
- testDetails: in vitro
- appliedConditions: human, hela cells, % viability
measuredProperty: viability at 28.5 h, 10 µM

| molecule | measuredProperty | valueReported |
| --- | --- | --- |
| CCOC(=O)CNc1nc(OC)cc(OC)n1 [CBK093392] | viability at 28.5 h, 10 µM | 86.7% |
| Cc1cc(C)nc(Sc2nnc(-c3ccc(C)c(S(=O)(=O)N4CCOCC4)c3)c3ccccc23)n1 [CBK264400] | viability at 28.5 h, 10 µM | 105% |
| Cc1oc(C(=O)N2CCc3sccc3C2c2ccccc2)cc1CN1CCOCC1 (stereo not drawn) [CBK285566] | viability at 28.5 h, 10 µM | 105% |
| O=C(Nc1cc(N2CCCS2(=O)=O)ccc1F)c1n[nH]c2ccccc12 [CBK304216] | viability at 28.5 h, 10 µM | 80.5% |
| CS(=O)(=O)Nc1nnc(C2CCCCC2)s1 [CBK069540] | viability at 28.5 h, 10 µM | 95.6% |
| Cc1cc(NC(=O)CN(C)Cc2cnn(-c3ccccc3)c2)on1 [CBK305622] | viability at 28.5 h, 10 µM | 92.5% |
| COC(=O)C1CCN(C(=O)c2ccc(Oc3cccc(Br)c3)nc2)CC1 [CBK304235] | viability at 28.5 h, 10 µM | 103% |
| O=C(O)CCC(=O)Nc1ccc(Br)cc1C(=O)c1ccccc1 [CBK262610] | viability at 28.5 h, 10 µM | 114% |
| O=C(Nn1cnnc1)c1cccc(C(=O)Nn2cnnc2)c1 [CBK091759] | viability at 28.5 h, 10 µM | 99.4% |
| O=C(COc1cccc(Cl)c1)N/N=C\c1ccc(C(=O)O)cc1 [CBK262293] | viability at 28.5 h, 10 µM | 102% |
| Cc1ccccc1SCC(C)C(=O)O (stereo not drawn) [CBK012292] | viability at 28.5 h, 10 µM | 83% |
| O=C(NCc1ccc(C(=O)O)cc1)NC1CCCCC1 [CBK286980] | viability at 28.5 h, 10 µM | 84.5% |
| COc1cnc(C(=O)NCCc2ccc(S(=O)(=O)NC(=O)NC3CCCCC3)cc2)cn1 [CBK011761] | viability at 28.5 h, 10 µM | 104% |
| OCCOc1cccnc1OCC1CC1 [CBK001461] | viability at 28.5 h, 10 µM | 89.4% |
| COCCNc1nccnc1-c1cccnc1 [CBK037376] | viability at 28.5 h, 10 µM | 102% |
| O=c1[nH]c2ccccc2n1C1CCN(S(=O)(=O)c2cccs2)CC1 [CBK149689] | viability at 28.5 h, 10 µM | 98.4% |
| CN1CCC(N[C@H]2C[C@@H](Cc3cc(CCO)on3)C2(C)C)CC1 [CBK289253] | viability at 28.5 h, 10 µM | 93.6% |
| COc1ccc(Cn2c(=O)n(S(=O)(=O)c3ccc(-c4cc(C(F)(F)F)n(C)n4)s3)c3ccccc32)cc1 [CBK106552] | viability at 28.5 h, 10 µM | 97.7% |
| Cc1nc2ccc(C(=O)N(C)CCN(C)C)cn2c1N(C)CC1CCCCC1 [CBK145894] | viability at 28.5 h, 10 µM | 96.7% |
| O=C1COc2ccccc2C/C=C/CC2(CCN(CC3CCOCC3)CC2)CN1 [CBK292128] | viability at 28.5 h, 10 µM | 104% |
| O=C(c1ccc(F)cc1)N1CCC(Oc2nccnc2OCc2ccc(Cl)c(Cl)c2)CC1 [CBK160721] | viability at 28.5 h, 10 µM | 85.9% |
| Cc1ccccc1-c1ccccc1CC1(C(=O)N(C)C)CCN(C(=O)CC(C)C)CC1 [CBK285714] | viability at 28.5 h, 10 µM | 93.6% |
| COc1ccc(Cl)cc1C(=O)Nc1cnn(CCCC(=O)O)c1 [CBK269855] | viability at 28.5 h, 10 µM | 80.7% |
| Cc1cc(F)c(S(N)(=O)=O)cc1NC(=O)CN1CCOCC1 [CBK051649C] | viability at 28.5 h, 10 µM | 104% |
| CCN(CC(=O)NCc1ccc(Cl)cc1)S(=O)(=O)N1CCCCCC1 [CBK305733] | viability at 28.5 h, 10 µM | 110% |
| O[C@@H]1C[C@@H](c2nc(-c3ccc(F)cc3)no2)N(Cc2ncc[nH]2)C1 [CBK288849] | viability at 28.5 h, 10 µM | 121% |
| COC(=O)c1c(O)noc1C [CBK023348] | viability at 28.5 h, 10 µM | 95.6% |
| CN(CC(=O)N1CCN(Cc2ccccc2)CC1)S(=O)(=O)c1ccc2ccccc2c1 [CBK267117] | viability at 28.5 h, 10 µM | 90.1% |
| N#Cc1cccc(C(=O)N2CCCC3(CCN(Cc4ccccc4)C3)C2)c1 (stereo not drawn) [CBK136893] | viability at 28.5 h, 10 µM | 92% |
| CCC(CO)Nc1cncc(-c2ccc(C(N)=O)cc2)n1 (stereo not drawn) [CBK065577] | viability at 28.5 h, 10 µM | 100% |
| Cc1ccc(C(CCO)Nc2ncnc3c2c(C)nn3C)cc1 (stereo not drawn) [CBK307387] | viability at 28.5 h, 10 µM | 82.1% |
| Cc1onc(-c2ccccc2)c1C(=O)N1CCN(CCN2CCCC2)CC1 [CBK158558] | viability at 28.5 h, 10 µM | 98.6% |
| CCn1c2ccccc2c2ccc(/C=N/NC(=O)c3ccc(O)cc3O)cc21 [CBK262948] | viability at 28.5 h, 10 µM | 56.9% |
| CC(C)Nc1cc(OC2CCN(C)CC2)ncn1 [CBK113280] | viability at 28.5 h, 10 µM | 83.6% |
| N#Cc1cccc(C(=O)NCC2(N3CCOCC3)CCSC2)c1 (stereo not drawn) [CBK306344] | viability at 28.5 h, 10 µM | 121% |
| O=C(Nc1nc2ccc(Br)cc2s1)C1CC1 [CBK026046] | viability at 28.5 h, 10 µM | 108% |
| O=C(NC1CCCCC1)N1Cc2nc[nH]c2C[C@H]1c1nc(-c2ccc3c(c2)OCO3)no1 [CBK289000] | viability at 28.5 h, 10 µM | 95.7% |
| C=CCNC(=O)[C@@H]1C=CCN1C(=O)c1ccccc1F [CBK283052] | viability at 28.5 h, 10 µM | 105% |
| CC(CCCC(C)(C)O)Nc1cncc(-c2cccc(Cl)c2)n1 (stereo not drawn) [CBK037857] | viability at 28.5 h, 10 µM | 90.1% |

----------
- testDetails: in vitro
- appliedConditions: human, hela cells, % viability
measuredProperty: viability at 28.5 h, 10 µM

| smilesData | valueReported |
| --- | --- |
| N#C/C(=C/c1ccc(-c2ccc(S(N)(=O)=O)cc2)o1)S(=O)(=O)c1ccc(Cl)cc1 | 110% |
| O=C(CN1C(=O)S/C(=C\c2ccc(OCc3ccccc3)cc2)C1=O)c1ccccc1 | 95.1% |
| O=C(NCc1ccccn1)C(=O)N/N=C/c1ccccc1[N+](=O)[O-] | 96.4% |
| Cc1cc2c([nH]c3ccccc32)c(C)n1 | 104% |
| O=C1NN(c2cccc(Cl)c2)C(=O)/C1=C\c1ccc(-c2ccc3c(c2)C(=O)NC3=O)o1 | 93.4% |
| CC(C)CN1CCC(NC(=O)c2csc(-c3cnn(C)c3)n2)CC1 | 97.2% |
| COc1ccc(-c2cc([C@H]3CN4CC[C@H]3C[C@@H]4CNC(=O)c3ccco3)n(C)n2)cc1 | 113% |
| COc1cc2c(cc1OC)CN(CCO)CC2 | 108% |
| O=C(c1ccc[nH]1)N1Cc2ccccc2C1 | 89.4% |

meta.source: paper PMC12040169
